Measured Emax, listed per entry for reference.
Molecular target: sGC α1/β1 heterodimer (Homo sapiens, UniProt Q02108+Q02153)
Construct: expressed in transfected cells; host or cells: CHO-K1 (clone #7, CHO-K1/sGC)
Sequence (Q02108 1-690): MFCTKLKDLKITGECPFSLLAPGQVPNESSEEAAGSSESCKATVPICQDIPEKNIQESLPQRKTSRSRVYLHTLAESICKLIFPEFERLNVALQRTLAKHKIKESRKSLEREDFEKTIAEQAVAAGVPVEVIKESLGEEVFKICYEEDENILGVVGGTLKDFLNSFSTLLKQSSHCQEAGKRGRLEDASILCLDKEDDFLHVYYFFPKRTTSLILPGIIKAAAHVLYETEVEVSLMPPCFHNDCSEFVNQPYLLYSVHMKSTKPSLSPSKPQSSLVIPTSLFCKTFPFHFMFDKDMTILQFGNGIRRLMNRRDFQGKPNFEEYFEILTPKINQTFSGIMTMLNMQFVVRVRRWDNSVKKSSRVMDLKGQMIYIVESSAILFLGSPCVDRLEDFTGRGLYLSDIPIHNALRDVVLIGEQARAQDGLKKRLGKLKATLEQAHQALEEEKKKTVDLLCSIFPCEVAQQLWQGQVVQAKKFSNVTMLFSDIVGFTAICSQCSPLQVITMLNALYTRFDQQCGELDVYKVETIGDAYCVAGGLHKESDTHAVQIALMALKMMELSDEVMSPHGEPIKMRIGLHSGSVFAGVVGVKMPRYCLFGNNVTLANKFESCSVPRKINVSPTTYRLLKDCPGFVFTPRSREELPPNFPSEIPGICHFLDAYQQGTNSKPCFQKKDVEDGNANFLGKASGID
Sequence (Q02153 1-619): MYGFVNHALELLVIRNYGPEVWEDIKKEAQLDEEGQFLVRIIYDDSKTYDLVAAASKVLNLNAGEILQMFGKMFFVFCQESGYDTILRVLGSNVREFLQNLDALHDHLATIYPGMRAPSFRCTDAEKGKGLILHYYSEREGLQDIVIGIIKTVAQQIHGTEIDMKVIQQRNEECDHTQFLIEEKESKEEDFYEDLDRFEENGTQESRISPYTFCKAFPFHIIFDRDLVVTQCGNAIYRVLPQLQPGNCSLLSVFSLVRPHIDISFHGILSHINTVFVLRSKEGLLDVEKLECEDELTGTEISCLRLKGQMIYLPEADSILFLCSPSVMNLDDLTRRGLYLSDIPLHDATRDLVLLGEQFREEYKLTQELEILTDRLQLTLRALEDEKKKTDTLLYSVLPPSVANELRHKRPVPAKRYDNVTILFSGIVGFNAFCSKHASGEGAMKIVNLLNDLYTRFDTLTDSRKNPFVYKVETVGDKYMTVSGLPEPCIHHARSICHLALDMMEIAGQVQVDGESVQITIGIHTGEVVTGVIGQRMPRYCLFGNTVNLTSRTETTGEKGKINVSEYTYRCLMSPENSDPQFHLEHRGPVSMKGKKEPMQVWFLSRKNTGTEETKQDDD
Test: Cell-based sGC functional assay (CASA assay): cGMP generation in CHO-K1/sGC cells, HTRF detection
Details: CHO-K1, percent activation relative to standard Compound A in CHO-K1/sGC cells; read-out: % Act.
Reply numerically in %, unit not repeated.

Nc1nc(-c2cn3ccnc3cn2)nc2c1C(c1ccc(Cl)cc1)(C1CC1)C(=O)N2 (stereo not drawn) [Example 146B] ... 95
CC1(c2ccc(F)cn2)C(=O)Nc2nc(-c3cn4ccnc4c(CCC(F)(F)F)n3)nc(N)c21 (stereo not drawn) [Example 202B] ... 91

Input line: Item CCOc1ccc(C2(C)C(=O)Nc3nc(-c4cn5ccnc5c(CCC(F)(F)C(F)(F)F)n4)nc(N)c32)cn1 (stereo not drawn) [Example 244B] has what recorded Emax?
Output line: 109
